Each entry below lists one item and its recorded Activity value.
# Test system: microRNA 122
# Procedure Summary: Inhibition of miR-122 in human Huh-7 cells expressing renilla luciferase gene assessed as relative luciferase unit after 48 hrs by dual luciferase assay relative to control
# Type: cell-based
# Set-up: concentration or dose not given beside the values
Recorded Endpoint: Activity (%)

smiles_string=COc1cc(C)c(C(C)C)cc1S(=O)(=O)n1cccc1 recorded_endpoint=Activity numeric_result=29
smiles_string=CCOc1cc(C)c(C(C)C)cc1S(=O)(=O)n1cnc(C)c1 recorded_endpoint=Activity numeric_result=74
smiles_string=CCc1nccn1S(=O)(=O)c1cc(C(C)C)c(C)cc1OC recorded_endpoint=Activity numeric_result=40
smiles_string=COc1cc(C)c(C(C)C)cc1S(=O)(=O)n1ccc2ccccc21 recorded_endpoint=Activity numeric_result=55
smiles_string=COc1cc(C)c(C(C)C)cc1S(=O)(=O)n1cnc2ccccc21 recorded_endpoint=Activity numeric_result=75
smiles_string=COc1cc(C)c(C(C)C)cc1S(=O)(=O)N(C)c1ccc(C)cc1 recorded_endpoint=Activity numeric_result=82
smiles_string=COc1cc(C)c(C)cc1S(=O)(=O)n1cnc(C)c1 recorded_endpoint=Activity numeric_result=32
smiles_string=COc1cc2c(cc1S(=O)(=O)n1cnc(C)c1)CCCC2 recorded_endpoint=Activity numeric_result=33.3
